Exercise: state measured IC50 for each of the compounds provided.
Tested on: cloned human μ opioid receptor (Homo sapiens (Human), UniProt P35372)
Sequence (P35372 whole entry): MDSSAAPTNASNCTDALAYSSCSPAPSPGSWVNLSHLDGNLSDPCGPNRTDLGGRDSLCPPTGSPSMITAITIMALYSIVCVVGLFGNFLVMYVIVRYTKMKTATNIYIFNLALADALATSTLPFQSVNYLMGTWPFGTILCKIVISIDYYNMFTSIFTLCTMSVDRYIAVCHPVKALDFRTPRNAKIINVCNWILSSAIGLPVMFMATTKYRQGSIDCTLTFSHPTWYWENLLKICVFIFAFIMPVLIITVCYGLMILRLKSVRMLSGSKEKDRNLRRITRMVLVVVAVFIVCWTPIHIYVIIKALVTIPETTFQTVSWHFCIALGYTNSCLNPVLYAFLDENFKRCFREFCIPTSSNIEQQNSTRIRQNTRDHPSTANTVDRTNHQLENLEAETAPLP
Test description: inhibition of agonist-stimulated [35S]GTPγS binding (in vitro antagonist activity), μ opioid receptor
Assay type: biochemical
Run conditions: inhibition of loperamide (EC80)-stimulated [35S]GTPγS binding to membranes
Procedure: The potencies of the antagonists were assessed by their abilities to inhibit agonist-stimulated [^35S]GTPγS binding to membranes containing the cloned human μ, κ, or δ opioid receptors. The agonists used were loperamide for the μ opioid receptor. […]
Report the figure in nM without appending any unit label.

Lookup result for C[C@H]1CN2CCN(CCc3ccccc3)C[C@H]2C[C@@]1(C)c1cccc(O)c1 [Example 2B] ; measured IC50: 21

Lookup result for C[C@H]1CN2CCN(Cc3ccccc3)C[C@H]2C[C@@]1(C)c1cccc(O)c1 [Example 2D] ; measured IC50: 11

Lookup result for C[C@H]1CN2C[C@H](Cc3ccccc3)NC[C@H]2C[C@@]1(C)c1cccc(O)c1 [Example 4] ; measured IC50: 29
